Hello, the source for this data is the supplement of paper PMC10567573, in case you need it.

B1: LOC100129726 (parent)
chain: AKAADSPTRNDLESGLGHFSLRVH

variants of: B1; test: protein stability index of a GFP-peptide fusion (GPS, HEK-293T) (PSI 1-6); higher = more stable; conditions: c terminus: a fixed tail appended;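 also: lentivirally expressed fusions sorted by FACS into six bins by GFP to DsRed ratio, PSI derived from sequencing read proportions per bin multiplied by bin number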
Tag: true if measured protein stability index is not below 3, false if it is.

# variant description, qualitative label
rows = [
    ("H24T", "true"),
    ("V23A", "true"),
    ("N10L", "false"),
    ("L12C", "false"),
    ("L21Q", "true"),
    ("L16F", "false"),
    ("G17A", "false"),
    ("V23H", "true"),
    ("V23C", "true"),
    ("L21E", "true"),
    ("G15D", "true"),
    ("N10S", "true"),
    ("P7I", "false"),
    ("R22W", "false"),
    ("D5L", "false"),
    ("S20H", "true"),
    ("R9D", "true"),
    ("G15W", "false"),
    ("S14N", "true"),
    ("T8V", "true"),
]
